Field: combination Emax. Provide a value for each of the molecules that follow.
# Test system: CAL-148 (Breast Carcinoma)
# RUN_DESCRIPTION: combination Emax (second highest fraction inhibited in the dose matrix, 72 h); higher = more inhibition; extreme values may be limits of the assay
Give a plain numeric answer without units written out.

Input: Quick check: combination Emax of CN(CCO)CC[C@H](CSc1ccccc1)Nc1ccc(S(=O)(=O)NC(=O)c2ccc(N3CCC([C@@H](O)c4ccccc4-c4ccc(Cl)cc4)CC3)cc2)cc1S(=O)(=O)C(F)(F)F [AZD4320] + Nc1ccn([C@@H]2O[C@H](CO)[C@@H](O)C2(F)F)c(=O)n1 [Gemcitabine] (first compound max 1 µM, 7x7, partner max 0.3 µM) ?
Output: 0.974

Input: Now give it for CN(CCO)CC[C@H](CSc1ccccc1)Nc1ccc(S(=O)(=O)NC(=O)c2ccc(N3CCC([C@@H](O)c4ccccc4-c4ccc(Cl)cc4)CC3)cc2)cc1S(=O)(=O)C(F)(F)F [AZD4320] + C[C@@H]1COCCN1C2=NC(=NC(=C2)C3(CC3)[S@](=N)(=O)C)C4=C5C=CNC5=NC=C4 [AZD6738] (first compound max 1 µM, 7x7, partner max 10 µM) too.
Output: 0.978

Input: Same lookup for N#Cc1cnc(Nc2cc(NC[C@H]3CNCCO3)c(C(F)(F)F)cn2)cn1 [SRA737] + C=CCn1c(=O)c2cnc(Nc3ccc(N4CCN(C)CC4)cc3)nc2n1-c1cccc(C(C)(C)O)n1 [AZD1775] (first compound max 10 µM, partner max 1 µM) , please.
Output: 0.969

* * *

# Tested on: NCI-H2085 (Non-Small Cell Lung Carcinoma)
# RUN_DESCRIPTION: combination Emax (second highest fraction inhibited in the dose matrix, 72 h); higher = more inhibition; extreme values may be limits of the assay
PARAMETER_MEASURED: combination Emax
# print the numeric value only

Input: If you can, please state the reported combination Emax value of CS(=O)(=O)CCNCc1ccc(-c2ccc3ncnc(Nc4ccc(OCc5cccc(F)c5)c(Cl)c4)c3c2)o1 [Lapatinib] + NC1(c2ccc(-c3nc4ccn5c(=O)[nH]nc5c4cc3-c3ccccc3)cc2)CCC1 [MK-2206] (first compound max 10 µM, 7x7, partner max 10 µM) .
Output: 0.587

Input: Please do the same for CN(CCO)CC[C@H](CSc1ccccc1)Nc1ccc(S(=O)(=O)NC(=O)c2ccc(N3CCC([C@@H](O)c4ccccc4-c4ccc(Cl)cc4)CC3)cc2)cc1S(=O)(=O)C(F)(F)F [AZD4320] + C[C@@H]1COCCN1C2=NC(=NC(=C2)C3(CC3)[S@](=N)(=O)C)C4=C5C=CNC5=NC=C4 [AZD6738] (first compound max 1 µM, 7x7, partner max 10 µM) as well.
Output: 0.502

Input: Input CN(CCO)CC[C@H](CSc1ccccc1)Nc1ccc(S(=O)(=O)NC(=O)c2ccc(N3CCC([C@@H](O)c4ccccc4-c4ccc(Cl)cc4)CC3)cc2)cc1S(=O)(=O)C(F)(F)F [AZD4320] + CN(C)CCCOc1ccc(-c2ccc3ncc4c(c3c2)n(C2CCOCC2)c(=O)n4C)cn1 [AZD0156] (first compound max 1 µM, 7x7, partner max 1 µM)
Output: 0.242

* * *

# Test system: NCI-H82 (Small Cell Lung Carcinoma)
# RUN_DESCRIPTION: combination Emax (second highest fraction inhibited in the dose matrix, 72 h); higher = more inhibition; extreme values may be limits of the assay
PARAMETER_MEASURED: combination Emax
API doc: respond with a numeric literal and nothing else, no unit.

Input: Value lookup for combination Emax; key = Cc1c2c(nn1C)CSCc1cc(n(C)n1)CSc1cc(c3ccccc3c1)OCCCc1c(C(=O)O)n(C)c3c-2c(Cl)ccc13 [AZD5991] + CS(=O)(=O)CCNCc1ccc(-c2ccc3ncnc(Nc4ccc(OCc5cccc(F)c5)c(Cl)c4)c3c2)o1 [Lapatinib] (first compound max 1 µM, 7x7, partner max 10 µM)
Output: 0.963

Input: // next record C=CCn1c(=O)c2cnc(Nc3ccc(N4CCN(C)CC4)cc3)nc2n1-c1cccc(C(C)(C)O)n1 [AZD1775] + Nc1ccn([C@@H]2O[C@H](CO)[C@@H](O)C2(F)F)c(=O)n1 [Gemcitabine] (first compound max 1 µM, partner max 0.3 µM)
Output: 0.923
